From: patent US7247734B2

Exercise: for every item that follows, state its recorded IC50.
# Target entity: yeast HSP90 (Saccharomyces cerevisiae)
# Construct: made in house; host or cells: E. coli
# Sequence (P02829 whole entry, looked up): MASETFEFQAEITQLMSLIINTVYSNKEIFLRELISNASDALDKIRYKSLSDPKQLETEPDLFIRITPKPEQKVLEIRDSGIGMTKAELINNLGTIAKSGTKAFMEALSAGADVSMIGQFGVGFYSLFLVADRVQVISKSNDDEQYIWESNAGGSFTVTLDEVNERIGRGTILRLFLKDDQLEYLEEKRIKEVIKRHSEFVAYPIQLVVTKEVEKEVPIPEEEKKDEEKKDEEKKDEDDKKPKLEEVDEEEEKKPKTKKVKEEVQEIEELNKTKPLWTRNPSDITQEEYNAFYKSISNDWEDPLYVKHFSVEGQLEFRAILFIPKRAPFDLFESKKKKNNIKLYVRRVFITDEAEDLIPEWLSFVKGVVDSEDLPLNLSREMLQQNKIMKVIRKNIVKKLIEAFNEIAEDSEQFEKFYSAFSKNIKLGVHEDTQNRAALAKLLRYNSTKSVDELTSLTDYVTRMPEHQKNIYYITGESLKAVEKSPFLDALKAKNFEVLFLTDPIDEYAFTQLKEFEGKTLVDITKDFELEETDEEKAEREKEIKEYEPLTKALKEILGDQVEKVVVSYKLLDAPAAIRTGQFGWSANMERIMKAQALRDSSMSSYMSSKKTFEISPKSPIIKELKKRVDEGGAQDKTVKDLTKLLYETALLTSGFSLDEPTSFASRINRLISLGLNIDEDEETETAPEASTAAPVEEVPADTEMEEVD
# Assay notes: Malachite green HSP90 ATPase assay
# Assay type: biochemical
# Condition context: activity range, ATPase assay; read-out: ATPase IC50

Consider the following illustrative entries.
Chem smiles | IC50
O=C(O)c1ccc(-c2c[nH]nc2-c2cc(Cl)c(O)cc2O)cc1 | < 50 µM
COc1ccc(-c2cn(C)nc2-c2cc(Cl)c(O)cc2O)cc1OC | > 50 µM
CCc1cc(-c2nn(C)cc2-c2ccc(OC)c(OC)c2)c(O)cc1O | > 50 µM
Oc1cc(O)c(-c2n[nH]cc2-c2cncnc2)cc1Cl | < 50 µM
Cc1nc2cc(-c3c[nH]nc3-c3cc(Cl)c(O)cc3O)ccc2s1 | < 50 µM
COc1ccc(-c2c(C)n[nH]c2-c2cc(C(=O)NN)c(O)cc2O)cc1 | > 50 µM

# input Reported IC50 for Cc1c(-c2ccc(Br)cc2)c(-c2cc(Cl)c(O)cc2O)nn1C : what is it?
# output > 50 µM
